The measurements presented in this section are drawn from paper PMC6792352.

# CC50 at 24 h values compiled below
- Assay Protocol: in vitro
- Conditions: rat, gh3-tre-luc cells, AC50 (uM) modified / 1000

# Compound, CC50 at 24 h
rows = [
    ("Cc1cc(Cl)ccc1OC(C)C(=O)O (stereo not drawn)", "> 90 µM"),
    ("Cc1ccc(C(=O)O)o1", "> 90 µM"),
    ("O=C(c1ccccc1)C1CCC1", "> 90 µM"),
    ("Cc1cc(-n2c(=O)[nH]c(=O)n(C)c2=O)ccc1Oc1ccc(S(=O)(=O)C(F)(F)F)cc1", "> 50 µM"),
    ("COC(=O)C(C)(C)C [Methyl pivalate]", "> 90 µM"),
    ("CCOS(C)(=O)=O [Ethyl methanesulfonate]", "> 90 µM"),
]
